ASSAY DETAILS: gradient 5% acetonitrile 3 min, to 50% in 2 min, to 85% in 15 min, held 3 min, 100 µL/min
ASSAY CONDITIONS: column: Zorbax Extend-C18 2.1 x 50 mm; eluents: water / acetonitrile, 0.1% formic acid
ATTRIBUTE MEASURED: RP-LC retention time (s)
Kindly provide the numeric value in s only, without the unit symbol.

- O=C(O)c1nnn(-c2cccc(Br)c2)c1C(F)(F)F: 836
- COc1ccc(-c2c(C(=O)NC(C)C)nc3ccccn23)cc1: 676

Input CCC(C(=O)Nc1nc2ccccc2[nH]1)n1cnc2ccccc2c1=O (stereo not given) . Output RP-LC retention time: 652

Entry under test: Cc1ccc(CC(=O)NC2CCN(c3nnc4ccc(C(F)(F)F)cn34)CC2)cc1 . Its RP-LC retention time was 815

# RP-LC retention time (molecule: c1cc(-c2noc(C3CCCCC3)n2)cc(N2CCOCC2)n1 ) is 1010

Reported RP-LC retention time of O=C(C1CCCC1)N1CCN(Cc2nnnn2-c2ccccc2)CC1 : 712

Briefly, RP-LC retention time measured for COc1ccc(C2Cn3cnc(C(=O)N4CCC(C(=O)NC(C)c5ccccc5)CC4)c3CO2)cc1 (stereo not given) : 751

Recorded RP-LC retention time (molecule Cn1nc(C(=O)N2CCCC(C(=O)Nc3ccccc3)C2)c2c1CCN(C(=O)c1cccs1)C2 (stereo not given) ): 730

So, CCOc1ccccc1-c1noc(Cn2cnc3c(oc4ccccc43)c2=O)n1 ? Its RP-LC retention time was 914

# RP-LC retention time of CCC1(O)CCOC2(CCN(Cc3cccc(OC)n3)CC2)C1 (stereo not given) = 602

Notebook: Cc1ccc(CNC(=O)CN2CCN(Cc3ccc(F)cc3)C2=O)cc1C , RP-LC retention time read as 835

Recorded RP-LC retention time (molecule CCN(CC)c1ncc2c(n1)CCC(C(=O)Nc1ccc(C(=O)OC)cc1)C2 (stereo not given) ): 736

Sure, the documented RP-LC retention time for COc1ccc(C2CCCN2C(=O)Cc2cccs2)cc1 (stereo not given) is 875

Form: molecule = O=C(c1cnccn1)N1[C@H]2CC[C@@H]1c1cnc(-c3ccccc3)nc1C2 ; RP-LC retention time = 807

The recorded RP-LC retention time for entry Fc1ccc(-c2noc(-c3ccc(NCCN4CCOCC4)nc3)n2)cc1 equals 687

Looking up Cc1c(F)cccc1NC(=O)N1CCCC1c1nncn1-c1ccccc1 (stereo not given) , I see its RP-LC retention time listed as 744

* * *

Here the recorded RP-LC retention time is given for each entry.
ASSAY DETAILS: gradient 5% acetonitrile 3 min, to 50% in 2 min, to 85% in 15 min, held 3 min, 100 µL/min
ASSAY CONDITIONS: column: Zorbax Extend-C18 2.1 x 50 mm; eluents: water / acetonitrile, 0.1% formic acid

• COc1ccc(S(=O)Cc2ccc(C(=O)NCCCN3CCCCC3)o2)cc1 (stereo not given) = 587 s
• CC(NCC(O)COc1c(F)cc(Br)cc1F)c1ccccc1 (stereo not given) = 618 s
• COCC(C)(O)CNS(=O)(=O)Cc1cccc(F)c1 (stereo not given) = 641 s
• CCCCNC(=O)c1cnn(-c2cc(-c3nc(C)no3)ccn2)c1C = 853 s
• Cc1cc(C)c(NS(=O)(=O)c2ccc(Cl)c(C(=O)O)c2)c(C)c1 = 829 s
• CCC(=O)Nc1cccc(-c2noc(C3CCN(C(=O)CCc4c[nH]c5ccccc45)CC3)n2)c1 = 869 s
• CCc1nc(-c2nnn(-c3ccc(F)cc3)c2C)no1 = 874 s
• CCOC(=O)N1CCN(Cc2c(NC(=O)c3ccccc3)sc(C)c2C)CC1 = 630 s

So for CC(C)Oc1ccc(CNC(=O)c2ccc3c(c2)nc2n3CCN(C(C)C)C2=O)cc1 , the logged RP-LC retention time turned out to be 754 s

The reported RP-LC retention time of the compound Cc1ccc(N2CCC(NC(=O)Nc3ccccc3C(F)(F)F)C2=O)cc1 (stereo not given) was 898 s

* * *

ASSAY DETAILS: gradient 5% acetonitrile 3 min, to 50% in 2 min, to 85% in 15 min, held 3 min, 100 µL/min
ASSAY CONDITIONS: column: Zorbax Extend-C18 2.1 x 50 mm; eluents: water / acetonitrile, 0.1% formic acid
Overview of recorded RP-LC retention time for various compounds
The figure you give is taken to be in s; do not add the unit.

Examples from the recorded data:
- Cn1c(CC2CCN(C(=O)c3ccccc3Cl)C2)nc2cccnc21 (stereo not given): 572
- Cc1ccc(-n2nnnc2CNS(=O)(=O)c2ccc(F)cc2F)cc1: 792

Just so you know, measured RP-LC retention time for CCOc1ccc(CCNC(=O)c2c(C)oc3nc(C)nc(N4CCCC4)c23)cc1 came out at 697

So, Cc1nn(-c2ccccc2)c2c1N(CC(=O)NC1CCCC1)C(=O)CS2 ? Its RP-LC retention time was 780

* * *

RP-LC retention time by entry:
ASSAY DETAILS: gradient 5% acetonitrile 3 min, to 50% in 2 min, to 85% in 15 min, held 3 min, 100 µL/min
ASSAY CONDITIONS: column: Zorbax Extend-C18 2.1 x 50 mm; eluents: water / acetonitrile, 0.1% formic acid
Give a bare numeral; the unit s is implied.

See these solved cases before continuing.
* COc1cccc(-n2c(N3CCCC(C(=O)NCCC(C)C)C3)nc3ccsc3c2=O)c1 (stereo not given) | 872
* CCOc1ccccc1CNC(=O)CN1CCN(Cc2cccc(Cl)c2)C1=O | 910
* CC1(C(=O)NCc2ccc3c(c2)OCO3)CCN(C(=O)c2ccc(C#N)cc2)CC1 | 754

Quick note, RP-LC retention time for COc1ccc(C(=O)N2C[C@@H]3C[C@H]2C[C@@H]3NS(=O)(=O)c2ccccc2)cc1OC landed at 723

According to the records, this compound CCCNC(=O)c1cccc2c1CCN2C(C)=O displays RP-LC retention time of 633

What the record says about CSc1ccc(-c2nc3ncccn3c2Nc2ccc(C)cc2C)cc1 : RP-LC retention time is 898

Briefly, RP-LC retention time measured for Cc1nn(C(=O)C(C)(C)C)c(C)c1S(=O)(=O)N1CCCC1 : 1180

Given item CCOC(=O)C(=O)Nc1cccc(F)c1 , the value recorded as its RP-LC retention time is 723

GET /value?item= Cc1ccc(CNC(=O)C2(CCO)CCN(c3ncccn3)C2)o1 (stereo not given) &field=RP-LC retention time returns 602

The compound listed as COc1ccc(OC)c(NC(=O)CN2CCN(Cc3ccccc3)C(=O)C2=O)c1 shows RP-LC retention time equal to 732

Input Cc1cccc(Cn2ccc3ccn(CC(=O)N4CCOc5ccc(C)cc54)c(=O)c32)c1 . Output RP-LC retention time: 1090

O=C(Cc1cc(-c2ccc3c(c2)OCO3)on1)Nc1ccc(F)c(F)c1F yielded RP-LC retention time of 888

RP-LC retention time reading for Cc1ccc2c(c1)N(C(=O)Cn1c(=O)cc(C(=O)N3CCCCC3)c3ccccc31)CCO2 : 1010

CCCN(Cc1ccc(OC)cc1)Cc1cc(=O)n2cccc(C)c2n1 has a reported RP-LC retention time of 644

Given item COc1ccc(OCc2noc(CNC(=O)Nc3ccc(Cl)c(Cl)c3)n2)cc1 , the value recorded as its RP-LC retention time is 917

Item: Cc1cccc(N2CCN(C(=O)Cn3nc(C(=O)N4CCCC4)c4ccccc43)CC2)c1C | RP-LC retention time: 1020

Query COc1nn(C)cc1C(=O)NCC(=O)NCCOc1ccc(F)cc1 yields RP-LC retention time of 626

The compound identified as Cc1ccc(-c2csc(Nc3ccc(Br)cn3)n2)cc1 registered its RP-LC retention time at 1250

Per the records, this compound ( CCOc1ccc(-n2c(=O)c3sccc3n(Cc3nc(-c4ccc(F)cc4)no3)c2=O)cc1 ) has RP-LC retention time equal to 982

get_value(item= CCOC(=O)c1c(S(=O)(=O)N2CCC(C(=O)NC3CC3)CC2)c(C)n(C)c1C , readout=RP-LC retention time) returns 672

* * *

ASSAY DETAILS: gradient 5% acetonitrile 3 min, to 50% in 2 min, to 85% in 15 min, held 3 min, 100 µL/min
ASSAY CONDITIONS: column: Zorbax Extend-C18 2.1 x 50 mm; eluents: water / acetonitrile, 0.1% formic acid
Each record here notes measured RP-LC retention time.
Write the answer as a number in s, unit excluded.

- Cc1nc(CCNC(=O)C2CCN(S(=O)(=O)c3cccc(C(F)(F)F)c3)CC2)cs1: 776

Looking up CCOC(=O)CC1C(=O)NCCN1C(=O)COc1ccc(Br)cc1C (stereo not given) , I found its RP-LC retention time recorded as 797

response.value for Cc1ccc(C(=O)N2CCC3(CC2)N=C(c2ccc(Cl)cc2)NO3)cc1 (field: RP-LC retention time) = 895

Lab note: measured RP-LC retention time of Cc1ccc(S(=O)(=O)N2CCC(c3cc4n(n3)CCCN(C)C4=O)CC2)cc1C was 806

Just so you know, measured RP-LC retention time for COc1cc2c(cc1OC)C(C(=O)NCCCN1CCOCC1)C1c3ccccc3CCN1C2=O (stereo not given) came out at 592

So, Cc1oc2c(c1C(=O)NCc1ccc(F)c(F)c1)C1=NC(C)(C)CN1C=N2 ? Its RP-LC retention time was 666

compound Cc1cc(C)c(CNS(=O)(=O)c2cc(-c3nc(C)c(C)s3)cs2)c(C)c1 , RP-LC retention time observed: 1310

Entry CCCCOc1ccc(-c2nc(C3CC(=O)N(c4ccc(F)c(Cl)c4)C3)no2)cc1 (stereo not given) — recorded RP-LC retention time = 1370

GET /value?item= CN(C)c1cccc(-c2nc(-c3cn(Cc4cccc(F)c4)nn3)no2)c1 &field=RP-LC retention time returns 677

The reported value for Cc1noc(-c2nn(C)c3c2CN(C(=O)Nc2ccc(C(F)(F)F)cc2)CC3)n1 in terms of RP-LC retention time is 847

compound Cc1ccc(N2C(=O)CC(N3CCC(C(N)=O)CC3)C2=O)cc1C (stereo not given) , RP-LC retention time observed: 607

Sure, the documented RP-LC retention time for CCCC(=O)NCCc1c(I)[nH]c2ccc(OC)cc12 is 849

For Cc1ccc(Nc2nc(Cl)nc3ncn(C)c23)c(C)c1 the compound record lists RP-LC retention time as 791

Consider COc1ccc2[nH]c(=O)c(CCC(=O)N(C)CCc3ccccn3)cc2c1 . Its measured RP-LC retention time is 578

The reported RP-LC retention time of the compound CC1CCCN(CCCNC(=O)CCCn2c(=O)c3cccn3c3ccc(Br)cc32)C1 (stereo not given) was 677

Per the records, this compound ( O=C(CCCn1ncn2c(cc3occc32)c1=O)N1CCN(c2ccccn2)CC1 ) has RP-LC retention time equal to 577

The measured RP-LC retention time associated with Cc1ccccc1OCC(=O)Nc1nc(-c2ccccc2Cl)cs1 reads 1210

Recorded RP-LC retention time (compound CCC(=O)N1CCc2cc(N3CC(C(=O)Nc4cccc(F)c4C)CC3=O)ccc21 (stereo not given) ): 801

GET /value?item= CCCN1C(=O)c2cccnc2Sc2cc(C(=O)N3CCC(C)CC3)ccc21 &field=RP-LC retention time returns 856

# RP-LC retention time (compound: O=S(=O)(c1ccc2nc(N3CCN(c4ccccc4)CC3)ccc2c1)N1CCCC1 ) is 921
